- protocol-description: activity coefficient (dimensionless); of the first substance listed, at infinite dilution; xn = mol fraction of the nth substance listed
- assay-setup: 333.15 K; Liquid; Chromatography; x1 = 0
quantity-name: activity coefficient

{"compound": "CCCC(C)=O [pentan-2-one] + CCCOC[n+]1ccn(Cc2ccccc2)c1.F[B-](F)(F)F", "quantity-name": "activity coefficient", "measurement": 1.76}
{"compound": "CC1CCCC1 [methylcyclopentane] + Cn1cc[n+](COCCCOC[n+]2ccn(C)c2)c1.O=S(=O)([N-]S(=O)(=O)C(F)(F)F)C(F)(F)F.O=S(=O)([N-]S(=O)(=O)C(F)(F)F)C(F)(F)F", "quantity-name": "activity coefficient", "measurement": 10.2}
{"compound": "CO [methanol] + Cn1cc[n+](COCCCOC[n+]2ccn(C)c2)c1.O=S(=O)([N-]S(=O)(=O)C(F)(F)F)C(F)(F)F.O=S(=O)([N-]S(=O)(=O)C(F)(F)F)C(F)(F)F", "quantity-name": "activity coefficient", "measurement": 0.75}
{"compound": "CCO [ethanol] + CCCCCCCCn1cc[n+](COCCC)c1C.N#C[N-]C#N", "quantity-name": "activity coefficient", "measurement": 0.38}
{"compound": "CC1CCCCC1 [methylcyclohexane] + CCCOC[n+]1ccn(Cc2ccccc2)c1.O=S(=O)([N-]S(=O)(=O)C(F)(F)F)C(F)(F)F", "quantity-name": "activity coefficient", "measurement": 6.14}
{"compound": "Cc1ccc(C)cc1 [1,4-dimethylbenzene] + CCCOC[n+]1ccn(C)c1.O=S(=O)([N-]S(=O)(=O)C(F)(F)F)C(F)(F)F", "quantity-name": "activity coefficient", "measurement": 2.53}
{"compound": "CC(C)O [propan-2-ol] + CCCOC[n+]1ccn(Cc2ccccc2)c1.N#C[N-]C#N", "quantity-name": "activity coefficient", "measurement": 0.84}

---

- protocol-description: activity coefficient (dimensionless); of the first substance listed, at infinite dilution; xn = mol fraction of the nth substance listed
- assay-setup: 343.15 K; Liquid; Chromatography; x1 = 0
quantity-name: activity coefficient

{"compound": "CCCCCCCCCCCCC [tridecane] + CCCOC[n+]1ccn(C)c1.O=S(=O)([N-]S(=O)(=O)C(F)(F)F)C(F)(F)F", "measurement": 147}
{"compound": "CCCCCCCCCC [decane] + CCCOC[n+]1ccn(Cc2ccccc2)c1.O=S(=O)([N-]S(=O)(=O)C(F)(F)F)C(F)(F)F", "measurement": 21.1}
{"compound": "C#CCCCC [1-hexyne] + CCCOC[n+]1ccn(Cc2ccccc2)c1.F[B-](F)(F)F", "measurement": 5.42}
{"compound": "C1CCCCC1 [cyclohexane] + CCCOC[n+]1ccn(Cc2ccccc2)c1.O=S(=O)([N-]S(=O)(=O)C(F)(F)F)C(F)(F)F", "measurement": 3.99}
{"compound": "CCCC(C)=O [pentan-2-one] + CCCOC[n+]1ccc(N(C)C)cc1.O=S(=O)([N-]S(=O)(=O)C(F)(F)F)C(F)(F)F", "measurement": 0.78}
{"compound": "CC(C)O [propan-2-ol] + N#C[N-]C#N.N#C[N-]C#N.c1ccc(Cn2cc[n+](COCCCOC[n+]3ccn(Cc4ccccc4)c3)c2)cc1", "measurement": 1.39}
{"compound": "CCC(=O)CC [pentan-3-one] + CCCCCCCCn1cc[n+](COCCCOC[n+]2ccn(CCCCCCCC)c2C)c1C.N#C[N-]C#N.N#C[N-]C#N", "measurement": 0.78}

Origin of the recorded values: the NIST ThermoML archive (doi:10.1016/j.fluid.2014.11.020)
